# Test system: bronchis of Hartle guinea pigs
# assay-overview: Dilating action of bronchia by Schultz-dale reaction
# condition-context: Cavia porcellus
Below: a set of entries, each annotated with reported pIC50.
By convention, pIC50 is the negative base-10 log of a molar concentration.

[
  {
    "compound": "CC(C)(C)c1cc(C=C2C(=O)NC(=O)N(C3CCCCC3)C2=O)cc(C(C)(C)C)c1O [Example 5]",
    "pIC50": 4.23
  }
]

Now take the following compound into account.
Q: # returns recorded pIC50 (system: bronchis of Hartle guinea pigs) for CCN1C(=O)C(=Cc2cc(C(C)(C)C)c(O)c(C(C)(C)C)c2)C(=O)N(CC)C1=O [Example 2]
A: 4.17

----------
Below: a set of entries, each annotated with reported Suppression Rate (%).
# Test system: male SD rats
# assay-overview: Carageenin induced paw edema
# Assay type: in vivo
# condition-context: oral, dose 2 mg/kg, 1 hour before carageenin; paw volume 3 hours after carageenin; suppression of edema forming rate
Report the value in % with no unit label.

Past entries and their recorded results:
[
  {
    "smiles-str": "CC(C)(C)c1cc(C=C2C(=O)NC(=O)N(C3CCCCC3)C2=O)cc(C(C)(C)C)c1O",
    "readout": "Suppression Rate (%)",
    "endpoint-value": 24
  },
  {
    "smiles-str": "CC(C)(C)c1cc(C=C2C(=O)N(C3CCCCC3)C(=O)N(C3CCCCC3)C2=O)cc(C(C)(C)C)c1O",
    "readout": "Suppression Rate (%)",
    "endpoint-value": 11
  },
  {
    "smiles-str": "CN1C(=O)C(=Cc2cc(C(C)(C)C)c(O)c(C(C)(C)C)c2)C(=O)N(c2ccccc2)C1=O",
    "readout": "Suppression Rate (%)",
    "endpoint-value": 48
  }
]

Now take the following molecule into account.
Q: I have this molecule here, `CCN1C(=O)C(=Cc2cc(C(C)(C)C)c(O)c(C(C)(C)C)c2)C(=O)N(CC)C1=O` , and I need its recorded Suppression Rate (%).
A: 32

----------
Below: a set of entries, each annotated with reported Ulcer Cases.
# Tested on: male SD rats
# assay-overview: Ulcer forming activity
# Type: in vivo
# condition-context: oral 10 mg/kg once daily for 5 days; 10 rats per group; stomach ulcers observed after 24 hours fasting
# Procedure: The test compounds were orally administered to male SD rats, 10 per a group, at the dosage of 10 mg/kg, once daily for 5 days. After the final administration, rats were fasted for 24 hours and killed by blood releasing under ether anesthesia. The stomachs were taken out and the presence of ulcers were observed. The same experiments were done with control compounds, E-5110 [Arznein Forsch. Drug Res., 37, 930 (1987), ibid, 37, 936 (1987)] abd diclofenac.

Past entries and their recorded results:
[
  {
    "molecule": "CON1CC/C(=C\\c2cc(C(C)(C)C)c(O)c(C(C)(C)C)c2)C1=O [Example E-5110, reference compound]",
    "Ulcer Cases": "3/10"
  },
  {
    "molecule": "CC(C)(C)c1cc(C=C2C(=O)NC(=O)N(c3ccccc3)C2=O)cc(C(C)(C)C)c1O",
    "Ulcer Cases": "0/10"
  }
]

Q: I have this molecule here, O=C(O)Cc1ccccc1Nc1c(Cl)cccc1Cl [Diclofenac, reference compound] , and I need its recorded Ulcer Cases.
A: 2/10

----------
Below: a set of entries, each annotated with reported IC50.
# Tested on: bronchis of Hartle guinea pigs
# assay-overview: Dilating action of bronchia by Schultz-dale reaction
# condition-context: Cavia porcellus
# Experimental: The specimens were prepared by removing the bronchis of Hartle guinea pigs after sensitizing them with egg white albumin and terminating them by blood releasing under ether anesthesia. […] The efficacy of the test compounds was described by the suppression rate, in percentage, calculated from the contraction value obtained after the addition of the test compound, defining the contraction value caused by the egg white albumin before the addition of the test compound as 100 %.
Report the value in µM with no unit label.

[
  {
    "compound": "CN1C(=O)C(=Cc2cc(C(C)(C)C)c(O)c(C(C)(C)C)c2)C(=O)N(c2ccccc2)C1=O [Example 1]",
    "system": "bronchis of Hartle guinea pigs",
    "unit-abbrev": "µM",
    "IC50": 50
  },
  {
    "compound": "CCCCN1C(=O)NC(=O)C(=Cc2cc(C(C)(C)C)c(O)c(C(C)(C)C)c2)C1=O [Example 4]",
    "system": "bronchis of Hartle guinea pigs",
    "unit-abbrev": "µM",
    "IC50": 43
  },
  {
    "compound": "Cc1ccc(N2C(=O)C(=Cc3cc(C(C)(C)C)c(O)c(C(C)(C)C)c3)C(=O)N(c3ccc(C)cc3)C2=O)cc1 [Example 7]",
    "system": "bronchis of Hartle guinea pigs",
    "unit-abbrev": "µM",
    "IC50": 39
  }
]

Now take the following compound into account.
Q: I have this compound here, CC(C)(C)c1cc(C=C2C(=O)N(C3CCCCC3)C(=O)N(C3CCCCC3)C2=O)cc(C(C)(C)C)c1O [Example 3] , and I need its recorded IC50.
A: 57

----------
# Test system: male SD rats
# assay-overview: Ulcer forming activity
# Assay type: in vivo
# condition-context: oral 10 mg/kg once daily for 5 days; 10 rats per group; stomach ulcers observed after 24 hours fasting
Below: a set of entries, each annotated with reported Ulcer Cases.

Past entries and their recorded results:
[
  {
    "compound": "CC(C)(C)c1cc(C=C2C(=O)N(C3CCCCC3)C(=O)N(C3CCCCC3)C2=O)cc(C(C)(C)C)c1O [Example 3]",
    "readout": "Ulcer Cases",
    "endpoint-value": "1/10"
  },
  {
    "compound": "CN1C(=O)C(=Cc2cc(C(C)(C)C)c(O)c(C(C)(C)C)c2)C(=O)N(c2ccccc2)C1=O [Example 1]",
    "readout": "Ulcer Cases",
    "endpoint-value": "0/10"
  }
]

Q: I have this compound here, CC(C)(C)c1cc(C=C2C(=O)NC(=O)N(C3CCCCC3)C2=O)cc(C(C)(C)C)c1O [Example 5] , and I need its recorded Ulcer Cases.
A: 0/10

Q: Similarly, CCCCN1C(=O)NC(=O)C(=Cc2cc(C(C)(C)C)c(O)c(C(C)(C)C)c2)C1=O [Example 4] ?
A: 0/10
